// provenance: PubChem BioAssay

- protocol-notes: binders from COS7 lysate, DM2A8 probe, primary screen, torsin A project, cell lysate, small-molecule microarray, fluorescence 635/667 (AID 1065)
- condition-set: higher = more signal, COS7 lysate expressing mutant human TOR1A
Reported composite z-score by item:
A bare number is all that is needed in reply.

compound	composite z-score
COC(=O)[C@@]1(Cc2ccccc2)[C@H]2c3cc(C(=O)N(C)C)n(Cc4ccsc4Br)c3C[C@H]2CN1C(=O)c1ccccc1	0.106
C=C[C@@H](COC(=O)OC(C)(C)C)N(Cc1ccc(OC)cc1)S(=O)(=O)c1ccc(Br)cc1	0.544
CN1C=C(C(=O)OCCS(C)(=O)=O)C(C(=O)OCCS(C)(=O)=O)=CC(c2ccc(CO)cc2)=CC1C1CC1 (stereo not drawn)	0.528
CC(C)C[C@@H]1NC(=O)[C@@H]2C[C@H](C(=O)NCc3ccc(F)cc3)[C@H](c3cccc(OCCO)c3)N2C1=O	0.297

Next compound, please.
**Q:** Name the recorded composite z-score for COC(=O)[C@H](Cc1ccccc1)N1CC2=C[C@@H](C3CC3)n3c(=O)n(C)c(=O)n3[C@H]2[C@@H]1[C@@H](O)Cc1ccccc1 .
**A:** 1.5

----------
- experimental-system: NADPH oxidase 4 (Homo sapiens)
- protocol-notes: NOX4-dependent H2O2 signal modulators, primary screen, NOX inhibitor project, cell-based, HEK293-NOX4, tetracycline-induced, Amplex Red fluorescence (AID 1160)
- condition-set: 45 min, higher = more signal, called active from +8 up or from −8 down
measured-endpoint: z-score
A bare number is all that is needed in reply.

Examples from the recorded data:
> print(dat)
                                   compound  observed
1  CN1C(=O)C2C=CC(C(O)c3ccc([N+](=O)[O-])cc3)N(N3CCCCC3)C2C1=O (stereo unspecified)     -2.07
2  NC(=O)[C@@H]1[C@H]2C(=O)O[C@H](c3ccccc3)[C@H](c3ccccc3)N2[C@H](c2ccc(O)cc2)[C@@]12C(=O)Nc1ccccc12     -1.13
3  C=C(C(=O)CC[C@@H](OC(=O)c1cccnc1)c1ccccc1OCCO)C(C)C    -0.118
4  CCC[C@@H]1C[C@@]1(CCC)[C@@H](NS(=O)(=O)c1cccc2cccnc12)c1ccc(Cl)cc1    -0.382
5  CN1C(=O)C2C=CC(C(O)c3ccccc3)N(N(c3ccccc3)c3ccccc3)C2C1=O (stereo unspecified)    -0.586
6  CC(=O)n1cc(C(O)C2C=CC3C(=O)N(c4ccccc4)C(=O)C3N2Nc2ccc([N+](=O)[O-])cc2)c2ccccc21 (stereo unspecified)     -2.56
7  CN(C)CCCCCCNC(=O)[C@H]1C[C@H]2C(=O)N3CCC[C@H]3C(=O)N2[C@H]1c1ccc(O)cc1     -1.28
8  CCCC=C(CCC)[C@@H](NC(=O)c1cccs1)c1ccc(C(F)(F)F)cc1     -3.52

**Q:** Name the recorded z-score for COc1ccc(C(=O)Nc2ccc(CN3C(=O)[C@]4(O[C@H](CCO)[C@@H]([Si](C)(C)c5ccc(OC)cc5)[C@@H]4C)c4ccccc43)cc2)cc1 .
**A:** -2.55

**Q:** Same for COC(=O)[C@@]1(Cc2ccc(OC)cc2)[C@H]2c3cc(C(=O)N(C)C)n(Cc4ccccn4)c3C[C@H]2CN1C(=O)c1ccccc1
**A:** -1.32

**Q:** Same for CCOC(=O)[C@H]1C/C=C/C[C@H](C(=O)OCC)C(=O)O[C@H]2[C@@H](OC)O[C@H](CO)[C@@H](OC(=O)c3c(OC)cccc3OC)[C@@H]2OC1=O
**A:** -0.754
